Tested on: A. baumannii (G-) strain ATCC 19606
assay procedure: Antimicrobial growth inhibition (CO-ADD), A. baumannii
Assay type: cell-based, Acinetobacter baumannii
run conditions: 32 µg/mL, duplicate (n = 2) values
Method: Compounds 1−3 and 5−12 were assayed against a selection of medically important pathogenic microorganisms (MRSA, E. coli, K. pneumoniae, A. baumanii, P. aeruginosa, C. albicans, C. neoformans), Table 4. […] 2 h. The absorbance was measured using a Biotek Synergy HTX plate reader. The percentage of growth inhibition was calculated for each well, using negative control (medium only) and positive control (bacteria without inhibitors) on the same plate as the references. […]
observable: % inhibition A. baumannii

### Prompt Bench note: what % inhibition A. baumannii did NC(=O)Cc1c(O)cc(Br)c(O)c1Br [Compound 9, subereaphenol A] show?
### Response 18.5%

### Prompt Endpoint output: % inhibition A. baumannii of COc1c(Br)cc(CC#N)c(O)c1Br [Compound 8] . Value?
### Response 7.5%

### Prompt Report % inhibition A. baumannii for COC1=C(Br)[C@H](O)[C@@]2(C=C1Br)CC(C(=O)NCCCOc1c(Br)cc(CCNC(=O)C3=NO[C@]4(C=C(Br)C(OC)=C(Br)[C@@H]4O)C3)cc1Br)=NO2 [Compound 5, 11,17-deoxyfistularin-3] please.
### Response 8.5%

### Prompt Please give the measured % inhibition A. baumannii for this compound: COC1=C(Br)[C@H](O)[C@@]2(C=C1Br)CC(C(=O)NCCCCCNC(=O)C1=NO[C@]3(C=C(Br)C(OC)=C(Br)[C@@H]3O)C1)=NO2 [Compound 3, homoaerothionin]
### Response 9.8%

----------
For each record, write down the corresponding CC50.
assay procedure: Cytotoxicity assay (CO-ADD)
Format: cell-based
run conditions: human embryonic kidney cells

### Prompt Quick one: CC50 for COC1=C(Br)[C@H](O)[C@@]2(C=C1Br)CC(C(=O)NCCCOc1c(Br)cc(CCN)cc1Br)=NO2 [Compound 11, araplysillin I] ?
### Response > 32 µg/mL

### Prompt Return reported CC50; argument: COC1=C(Br)[C@H](O)[C@@]2(C=C1Br)CC(C(=O)NCCCCCNC(=O)C1=NO[C@]3(C=C(Br)C(OC)=C(Br)[C@@H]3O)C1)=NO2 [Compound 3, homoaerothionin]
### Response > 32 µg/mL

### Prompt If you can, please state the reported CC50 value of COC1=C(Br)[C@H](O)[C@@]2(C=C1Br)CC(C(=O)NCCCOc1c(Br)cc(CCNC(=O)C3=NO[C@]4(C=C(Br)C(OC)=C(Br)[C@@H]4O)C3)cc1Br)=NO2 [Compound 5, 11,17-deoxyfistularin-3] .
### Response > 32 µg/mL

### Prompt // returns reported CC50 for input COC1=C(Br)[C@H](O)[C@](O)(CC#N)C=C1Br [Compound 1, (+)-aeroplysinin-1]
### Response > 32 µg/mL
